- experimentNotes: inhibitors of Chlamydomonas gravitaxis, primary screen, whole organism, Chlamydomonas reinhardtii, WT vs cilia-less mutant, absorbance, 96-well (AID 463189);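 also: 0% = wild type cc124 cells in DMSO and 100% = ciliumless bld1 mutant cells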
- measurementSetup: OD600 absorbance, 2 days, at 10 µM, hits give high values

compound | inhibition (%)
CCN(CC)CCN1C(=O)c2ccccc2NC1c1cc(OC)c(OC)c(OC)c1 (centres undefined) | 16.2
COCCCn1c2nc3ccccc3nc2c2c(=O)n(-c3ccccc3OC)c(C)nc21 | 4.04
Nc1nc2n(n1)C(c1cccs1)CC(c1ccc(F)cc1)N2 (centres undefined) | 0.994
CNc1oc(-c2cccs2)nc1C#N | 7.4
Nc1nnnn1/N=C/c1cccs1 | 17.8
Cn1c(=O)c2c3c(sc2n2c(SCC(=O)c4ccccc4)nnc12)COC(C)(C)C3 | 35.1
CC(NC(=O)Nc1nnc(C(F)(F)F)s1)(C(F)(F)F)C(F)(F)F | 1.97
COC(=O)c1ccc(C2/C(=C(\O)c3cccc(OC)c3)C(=O)C(=O)N2CCCN2CCOCC2)cc1 (centres undefined) | 14.7
COc1cccc(C(=O)Nc2ccc(-c3nnc(-c4ccco4)o3)cc2)c1 | -6.98
Cc1ccc(C2CC(c3cccs3)n3nc(N)nc3N2)cc1 (centres undefined) | 31.5
CCC(=O)Nc1nc2ccccc2n1CCN(C)C | -5.07
CSc1nncc(=O)[nH]1 | -3.84
Cn1c[n+](C)cc1/C=N/O | -4.46
Cn1c(NCCCO)nc2c1c(=O)n(Cc1ccccc1F)c(=O)n2C | 7.04
COc1ccc(CNc2oc(COc3ccc(Cl)cc3)nc2C#N)cc1 | 2.55
Cc1ccc(-n2ncc3c(N4CCCC4)ncnc32)c(C)c1 | 147
CCC(=O)Nc1ccc(-c2nnc(SCC(=O)NCC3CCCO3)n2C)cc1 (centres undefined) | -4.35
O=C1c2ccccc2C(=O)N1c1ncccn1 | 3.86
COc1cc(C2Nc3cccc4cccc(c34)N2)cc(OC)c1OC(C)=O | 17.1
NC(=O)C1CCN(CCC(=O)Nc2ccc(Br)cc2)CC1 | 44
CN1C(=O)C2(c3ccccc31)C1CCCC=C1C(C#N)=C(N)C2(C#N)C#N (centres undefined) | 4.14
CCOC(=O)Cn1nc(C)c2ccccc2c1=O | -2.22
CC1(C)Cc2[nH]c(=O)c(C#N)cc2CS1 | 3.23
Cc1cc(C)n(CC(=O)c2ccccc2)c(=O)c1C#N | -1.97
CCN1CCc2c(C#N)c(N3CCCCC3)nc(N3CCOCC3)c2C1 | 20.3
CC(=O)c1ccc(C#CC(C)(C)O)s1 | -7.15
CN(C)CCCN1C(=O)C(=O)/C(=C(/O)c2ccccc2)C1c1ccccn1 (centres undefined) | 10.1
CC1(C)Cc2c(C#N)c(N3CCN(C(=O)c4ccco4)CC3)nc(Cc3ccccc3)c2CO1 | 16.1
CCc1nc(N2CCOCC2)c(C#N)c2c1CCCC2 | 29.5
COc1ccc(/C(O)=C2/C(=O)C(=O)N(CCCN(C)C)C2c2ccccc2)cc1Cl (centres undefined) | 20.4
COC(=O)c1[nH]c(C)c(/C(O)=C2\C(=O)C(=O)N(CCN3CCOCC3)C2c2ccccc2OC)c1C (centres undefined) | 5.11
O=c1c2ccccc2ncn1Cc1ccco1 | 14.3
Cn1ncc2nc[nH]c(=O)c21 | 30.9
Cc1ccc(-n2ncc3c(NCc4cccnc4)ncnc32)c(C)c1 | -12.1
